measured target: MAP2K4 (human) (UniProt P45985)
Sequence (P45985 whole entry, looked up): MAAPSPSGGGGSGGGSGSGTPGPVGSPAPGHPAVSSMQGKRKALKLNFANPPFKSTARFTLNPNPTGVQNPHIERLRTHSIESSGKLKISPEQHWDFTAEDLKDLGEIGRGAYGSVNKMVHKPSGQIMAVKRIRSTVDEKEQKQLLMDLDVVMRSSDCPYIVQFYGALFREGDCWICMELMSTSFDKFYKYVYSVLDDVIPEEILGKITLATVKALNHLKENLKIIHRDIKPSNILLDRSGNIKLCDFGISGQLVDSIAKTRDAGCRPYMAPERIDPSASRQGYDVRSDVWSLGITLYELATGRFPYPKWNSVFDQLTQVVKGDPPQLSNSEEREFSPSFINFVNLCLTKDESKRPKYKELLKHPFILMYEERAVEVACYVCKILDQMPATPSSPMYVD
test: KINOMEscan competition binding
experimental context: compound 10.0 µM
Param label: returns 1 when kinase still bound, per cent of control < 90%, returns -1 otherwise, including exact equality.

Query block: Given COc1cc(C(=O)NC2CCN(C)CC2)ccc1Nc1ncc2c(n1)N(C1CCCC1)C(C)CC(=O)N2C (configuration not stated) , is recorded kinase still bound, per cent of control strictly lower than 90%?
Result block: -1

Query block: For this compound, is kinase still bound, per cent of control lower than 90%? C[C@@H](Oc1cc(-n2cnc3ccc(CN4CCN(C)CC4)cc32)sc1C(N)=O)c1ccccc1C(F)(F)F
Result block: 1

Query block: Does the reported kinase still bound, per cent of control of the following compound sit strictly below 90%? O=C(O)c1ccc(Nc2ncc3c(n2)-c2ccc(Cl)cc2C(c2c(F)cccc2F)=NC3)cc1
Result block: -1

Query block: Does C=CC(=O)Nc1cccc(Oc2nc(Nc3ccc(N4CCN(C)CC4)cc3OC)ncc2Cl)c1 have kinase still bound, per cent of control strictly under 90%?
Result block: -1

Query block: Given C=CC(=O)Nc1cccc(Nc2nc(N[C@H]3CC[C@H](N(C)C)CC3)nc3c2ncn3C(C)C)c1 , is recorded kinase still bound, per cent of control strictly lower than 90%?
Result block: 1

Query block: For N#Cc1c(NC(=O)c2cccc3ccccc23)sc2c1CCCC2 , is the recorded kinase still bound, per cent of control below the cut-off of 90%?
Result block: -1

Query block: Bench note: check whether Cc1cc([C@@H](C)Nc2ccccc2C(=O)O)c2nc(N3CCOCC3)cc(=O)n2c1 shows kinase still bound, per cent of control below 90%
Result block: -1

Query block: Report whether reported kinase still bound, per cent of control is lower than 90% (strictly) for O=C1Nc2ccc(I)cc2/C1=C/c1cc(Br)c(O)c(Br)c1
Result block: 1

Query block: Decide: kinase still bound, per cent of control of CCC(=O)N1CCN(c2ccc(-n3c(=O)ccc4cnc5ccc(-c6cnc7ccccc7c6)cc5c43)cc2C(F)(F)F)CC1 strictly below 90%?
Result block: 1

Query block: Check if kinase still bound, per cent of control falls below 90% for CCN1CCN(Cc2ccc(Nc3ncc4c(n3)N(C)c3ccccc3C(=O)N4C)cc2C(F)(F)F)CC1 .
Result block: -1

Query block: Strictly below 90% in kinase still bound, per cent of control? Nc1ccc(-c2ccc3ncc4ccc(=O)n(-c5cccc(C(F)(F)F)c5)c4c3c2)cn1
Result block: 1

Query block: Quick check: kinase still bound, per cent of control of Cc1ccc2nc(NCCN)c3ncc(C)n3c2c1 under 90%?
Result block: -1
